molecular target: alpha-glucosidase (Saccharomyces cerevisiae); construct: purchased Sigma-Aldrich Co. (Saint Louis, MO, USA); experiment: biochemical; conditions: isolated compounds; read-out: Alpha-glucosidase inhibition IC50 (isolated compounds)
Reported pIC50 is given for each of the following molecules.
Formally, pIC50 is defined as -log10 of the concentration c, with c in mol/L.

COc1cc(-c2oc3cc(O)c(OC)c(O)c3c(=O)c2OC)ccc1O [DL8, jaceidin] ... 3.55

Then there is this molecule:
Given the molecule CC[C@H](CC[C@@H](C)[C@H]1CC[C@H]2[C@@H]3CC(O)C4=CC(=O)CC[C@]4(C)[C@H]3CC[C@]12C)C(C)C (stereo partly drawn) [DL3, 6-hydroxystigmast-4-en-3-one] , what is its reported pIC50?
3.75

* * *

biological target: alpha-glucosidase (Saccharomyces cerevisiae, UniProt P53341); construct: purchased Sigma-Aldrich Co. (Saint Louis, MO, USA); assay: biochemical
Sequence (P53341 whole entry): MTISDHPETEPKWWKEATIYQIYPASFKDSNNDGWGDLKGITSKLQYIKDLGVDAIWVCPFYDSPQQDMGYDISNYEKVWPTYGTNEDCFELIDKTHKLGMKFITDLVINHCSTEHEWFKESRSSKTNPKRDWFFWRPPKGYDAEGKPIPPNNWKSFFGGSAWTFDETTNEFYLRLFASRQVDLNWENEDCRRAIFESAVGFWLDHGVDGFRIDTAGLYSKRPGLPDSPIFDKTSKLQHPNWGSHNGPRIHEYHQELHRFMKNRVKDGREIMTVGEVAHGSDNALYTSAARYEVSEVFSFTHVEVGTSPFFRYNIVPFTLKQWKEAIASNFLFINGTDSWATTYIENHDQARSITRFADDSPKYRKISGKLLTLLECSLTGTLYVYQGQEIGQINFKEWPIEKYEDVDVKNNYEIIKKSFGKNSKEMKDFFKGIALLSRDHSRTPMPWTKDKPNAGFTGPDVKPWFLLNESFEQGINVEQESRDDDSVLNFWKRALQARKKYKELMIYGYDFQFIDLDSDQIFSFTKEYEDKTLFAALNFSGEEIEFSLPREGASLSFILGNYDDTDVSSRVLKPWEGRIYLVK
ASSAY ENDPOINT: IC50 (µM)
Entry rule: numbers only, all in µM.

Illustrative cases are given below, each with its answer.
O=c1c(-c2ccc(O)cc2)coc2cc(O)ccc12 [DL6, daidzein] ... 66.9
Cc1cc(O)c2c(c1)C(=O)c1cccc(O)c1C2=O [PA5, chrysophanol] ... 98.2

Then there is this compound:
Given the compound O=c1c(O[C@@H]2O[C@H](CO)[C@@H](O)[C@H](O)[C@H]2O)c(-c2ccc(O)c(O)c2)oc2cc(O)cc(O)c12 [DL12, isoquercetin] , what is its reported IC50?
99.8

* * *

target: alpha-glucosidase (Saccharomyces cerevisiae); construct: purchased Sigma-Aldrich Co. (Saint Louis, MO, USA); assay: biochemical; details: ΔGexp calculated from IC50, T=300 K
Reported Binding Affinity Exp is given for each of the following molecules.
Entry rule: numbers only, all in kcal/mol.

CC[C@H](CC[C@@H](C)[C@H]1CC[C@H]2[C@@H]3CC(O)C4=CC(=O)CC[C@]4(C)[C@H]3CC[C@]12C)C(C)C (stereo partly drawn) [DL3, 6-hydroxystigmast-4-en-3-one] ... -5.1
Cc1cc(O)c2c(c1)C(=O)c1cccc(O)c1C2=O ... -5.5
COc1cc(/C=C/C(=O)NC(=O)c2ccc(O)c(OC)c2)ccc1O [PA6, tribulusimide D] ... -5.7
COc1cc(-c2oc3cc(O)c(OC)c(O)c3c(=O)c2OC)ccc1O ... -4.9

Then there is this molecule:
Given the molecule CC1(C)C[C@H](O)C[C@@](C)(O)/C(O)=C\C1=O , what is its reported Binding Affinity Exp?
-5.6

* * *

Reported IC50 is given for each of the following molecules.
molecular target: alpha-glucosidase (Saccharomyces cerevisiae, UniProt P53341); construct: purchased Sigma-Aldrich Co. (Saint Louis, MO, USA); experiment: biochemical; conditions: isolated compounds; read-out: Alpha-glucosidase inhibition IC50 (isolated compounds)
Entry rule: numbers only, all in µM.

Illustrative cases are given below, each with its answer.
COc1cc(/C=C/C=O)ccc1O [PA4, coniferyl aldehyde] ... 250
O=c1cc(-c2ccc(O)c(O)c2)oc2cc(O)cc(O)c12 [DL10, luteolin] ... 67.1
CC1(C)C[C@H](O)C[C@@](C)(O)/C(O)=C\C1=O [DL5, chakyunglupulin B] ... 82.2

Then there is this molecule:
Short answer please: IC50, alpha-glucosidase (Saccharomyces cerevisiae, UniProt P53341), entry COc1cc(/C=C/C(=O)NC(=O)c2ccc(O)c(OC)c2)ccc1O [PA6, tribulusimide D]
76.2

* * *

target: alpha-glucosidase (Saccharomyces cerevisiae, UniProt P53341); construct: purchased Sigma-Aldrich Co. (Saint Louis, MO, USA); assay: biochemical; conditions: isolated compounds; read-out: Alpha-glucosidase inhibition IC50 (isolated compounds)
pIC50: −log10 of the molar value.
Reported pIC50 is given for each of the following compounds.

COc1c(-c2ccc(O)c(O)c2)oc2cc(O)cc(O)c2c1=O ... < 3.52

Given the compound CC[C@H](CC[C@@H](C)[C@H]1CC[C@H]2[C@@H]3CC=C4C[C@@H](O[C@@H]5O[C@H](CO)[C@@H](O)[C@H](O)[C@H]5O)CC[C@]4(C)[C@H]3CC[C@]12C)C(C)C , what is its reported pIC50?
< 3.52

Given the compound CC[C@H](CC[C@@H](C)[C@H]1CC[C@H]2[C@@H]3CC=C4C[C@@H](O)CC[C@]4(C)[C@H]3CC[C@]12C)C(C)C , what is its reported pIC50?
< 3.52

Given the compound CC(C)(C)c1ccc(C(=O)c2ccc(C(C)(C)C)cc2C(C)(C)C)c(C(C)(C)C)c1 , what is its reported pIC50?
< 3.52
